inhibition at 10 µM values, listed per item
Test system: lymphocytes
Experiment: Chemotaxis assay, lymphocytes (MIP-3β)
Assay type: cell-based
Details: Homo sapiens, Lymphocyte; [cpd] 10 μM; MIP-3β 100 nM; 4 h; read-out: Inhibition of Chemotaxis (%) Lymphocytes (MIP3-β)
Method: PMNs and monocytes migration was assessed using 1 or 3-μm pore size transwells (Bio-Coat Becton-Dickinson), while lymphocytes by using 5-elm pore size transwells. Cells were in RPMI1640, containing 10% heat-inactivated Fetal Calf Serum (FCS) and 20 mM HEPES, pH 7.3, at 2×10^6/ml. […] Migration was evaluated after 2 h for PMNs and monocytes and after 4 h for lymphocytes. fMLP 10 nM (PMNs and monocytes) and MIP-3β 100 nM (lymphocytes) were utilized as chemoattractants. […]

Solved entries (count: 5):
input_smiles=COc1cc2[nH]c(-c3nnc[nH]3)c(-c3ccccc3)c2cc1OC measured_property="inhibition at 10 µM" measured_value=49.3%
input_smiles=COc1cc2[nH]c(C(=O)N3CCOCC3)c(-c3ccccc3)c2cc1OC measured_property="inhibition at 10 µM" measured_value=44.3%
input_smiles=CCOC(=O)CCc1[nH]c2cc(OC)c(OC)cc2c1-c1ccc(OC)cc1 measured_property="inhibition at 10 µM" measured_value=47.9%
input_smiles=COc1ccc(-c2c(-c3nnc(C)o3)[nH]c3cc(OC)c(OC)cc23)cc1 measured_property="inhibition at 10 µM" measured_value=13.6%
input_smiles=COc1ccc(-c2c(C#N)n(CCCN(C)C)c3cc(OC)c(OC)cc23)cc1 measured_property="inhibition at 10 µM" measured_value=43.7%

Ask | Supply inhibition at 10 µM value. Item: `COc1cc2[nH]c(C(=O)N(C)C)c(-c3ccccc3)c2cc1OC`
Reply | 19.9%

Ask | Supply inhibition at 10 µM value. Item: `COc1ccc(-c2c3n(c4cc(OC)c(OC)cc24)CC(=O)NC3)cc1`
Reply | 57.5%

Ask | Supply inhibition at 10 µM value. Item: `COc1ccc(-c2c(C#N)n(CCN(C)C)c3cc(OC)c(OC)cc23)cc1`
Reply | 51%

Ask | Supply inhibition at 10 µM value. Item: `CNC(=O)c1[nH]c2cc(OC)c(OC)cc2c1-c1ccccc1`
Reply | 48.9%
